System: MvaT
assay_notes: PBM 8-mer E-score (mean of HK and ME arrays) (E-score (dimensionless, -0.5 to 0.5)); higher = stronger relative binding preference
The full ranking holds about 33,000 sequences; the median of “E-score (dimensionless, -0.5 to 0.5)” is about -0.058, and the highest 2% start at about 0.35. Only a selection was taken, and the highest values are over-represented in it overall.
measurement_kind: PBM 8-mer E-score
Form rule: numeric answer, no unit written next to it.

Worked cases, answers included:
{"sequence_entry": "AGTAATAC", "PBM 8-mer E-score": 0.297}
{"sequence_entry": "CATACAAA", "PBM 8-mer E-score": 0.206}
{"sequence_entry": "AAATATCG", "PBM 8-mer E-score": 0.295}

Okay, next one:
IN: Which measured PBM 8-mer E-score value corresponds to CATTAAAA ?
OUT: 0.201
